- assay.method.text: Hepatocytes stability assay (human hepatocytes)
- Assay type: in vitro ADME
- condition.info: both sexes, human, cryopreserved hepatocytes, cryopreserved human hepatocytes (pool of 50 mixed gender); 1 μM test compound; 1×10^6 cell/mL; 37 degrees C; read-out: CLint (μL/min/million cells)
- Experimental: In vitro metabolic stability was assessed using cryopreserved hepatocytes from male Sprague Dawley rats and a pool of 50 mixed gender humans (BioIVT, Baltimore, MD). […] Data was calculated as percent remaining by assuming zero-minute time point peak area ratio (analyte/IS) as 100% and dividing remaining time point peak area ratios by zero-minute time point peak area ratio. […] From a plot of log (ln) peak area against time, the slope of the line was determined. […]
# class assignment by measured hepatocyte CLint at 1 μM: zone 1 = under 20 µL/min/1e6 cells, zone 2 = from 20 µL/min/1e6 cells up to 40 µL/min/1e6 cells, zone 3 = 40 µL/min/1e6 cells and over

Sample answers from the record:
| molecule | class.label |
| --- | --- |
| O=C1COc2ccc(Cl)cc2C2CCC(CC2)OC[C@H]2[C@@H](NS(=O)(=O)C3CC3)CCCN12 (stereo in doubt) | zone 1 |
| Cc1ncnc2c1[C@H]1CC[C@H](CC1)OCC1[C@@H](NS(=O)(=O)C(C)C)CCCN1C(=O)CO2 (stereo in doubt) | zone 1 |
| O=S(=O)(N[C@H]1CCCN2CCOc3ccccc3[C@H]3CC[C@H](CC3)OCC12)C1CCC1 (stereo in doubt) | zone 3 |
| CC(C)S(=O)(=O)N[C@H]1CCN2C(=O)COc3ncccc3[C@H]3CC[C@H](CC3)OCC12 (stereo in doubt) | zone 1 |
| CC[C@H]1Oc2ccccc2[C@H]2CC[C@H](CC2)OCC2[C@@H](NS(C)(=O)=O)CCCN2C1=O (stereo in doubt) | zone 2 |

INPUT: Into which bin does this molecule go? CC(C)(C)S(=O)(=O)N[C@H]1CCCN2C(=O)COc3ccccc3[C@H]3CC[C@H](CC3)OCC12 (stereo in doubt)
OUTPUT: zone 3

INPUT: Classify this molecule: Cc1ccc2c(c1)OCCN1CCC[C@H](NS(C)(=O)=O)C1CO[C@H]1CC[C@@H]2CC1 (stereo in doubt)
OUTPUT: zone 3

INPUT: Which class is correct for the following molecule? Cc1cccc2c1[C@H]1CC[C@H](CC1)OCC1[C@@H](NS(=O)(=O)C3CC3)CCN1C(=O)CO2 (stereo in doubt)
OUTPUT: zone 3

INPUT: Please report the category associated with Cc1ccc2c(c1)[C@H]1CC[C@H](CC1)OCC1[C@@H](NS(C)(=O)=O)CCCN1CCO2 (stereo in doubt) , nothing else.
OUTPUT: zone 2

###

- Tested on: human hepatocytes
- assay.method.text: Hepatocytes stability assay (human hepatocytes)
- Format: in vitro ADME
- condition.info: human hepatocytes; scaled hepatic clearance divided by liver blood flow (well-stirred model, fu assumed unity)
observation.type: Extraction Ratio (ER)
# answer = number (no unit)

Example cases with answers are listed next.
| compound | tested.target | observed |
| --- | --- | --- |
| CC(C)S(=O)(=O)N[C@H]1CCCN2C(=O)COc3ncc(Cl)cc3[C@H]3CC[C@H](CC3)OCC12 (stereo in doubt) | human hepatocytes | 0.70 |
| Cc1cccc2c1OCC(=O)N1CCC[C@H](NS(C)(=O)=O)C1CO[C@H]1CC[C@@H]2CC1 (stereo in doubt) | human hepatocytes | 0.78 |

Switching to the query record.
INPUT: Recorded Extraction Ratio (ER) of CC(C)(O)C(=O)N1CC[C@H](NS(C)(=O)=O)[C@@H]1Cc1cccc(-c2cc(F)cc(F)c2)c1F [Reference Compound B, reference compound] , please.
OUTPUT: 0.19

###

Here, each record is paired with measured EC50 data.
- tested.target: human orexin-2 receptor (OX2R) (Homo sapiens)
- Sequence (O43614 1-444): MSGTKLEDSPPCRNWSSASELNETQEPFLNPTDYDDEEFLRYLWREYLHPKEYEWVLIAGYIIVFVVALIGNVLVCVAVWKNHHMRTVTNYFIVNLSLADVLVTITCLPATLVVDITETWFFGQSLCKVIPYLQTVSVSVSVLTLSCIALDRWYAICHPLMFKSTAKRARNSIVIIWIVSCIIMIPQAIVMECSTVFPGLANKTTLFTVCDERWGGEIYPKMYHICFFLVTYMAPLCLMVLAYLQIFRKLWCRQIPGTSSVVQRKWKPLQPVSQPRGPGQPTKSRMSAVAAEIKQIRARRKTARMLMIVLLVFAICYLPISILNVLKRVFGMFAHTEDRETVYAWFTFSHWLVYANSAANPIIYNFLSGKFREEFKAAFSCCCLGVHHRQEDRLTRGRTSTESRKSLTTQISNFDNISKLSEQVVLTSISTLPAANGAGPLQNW
- assay.method.text: Human OX2R IP1 assay
- condition.info: T-Rex CHO cells stably overexpressing human OX2R; IP1 accumulation; 1 hr at 37 degrees C; mean EC50

Past entries and their recorded results:
| compound | observation.type | observed |
| --- | --- | --- |
| Cc1ccc2c(c1)[C@H]1CC[C@H](CC1)OC[C@H]1[C@@H](NS(=O)(=O)C(C)C)CCCN1C(=O)CO2 (stereo in doubt) | EC50 | < 0.01 µM |
| C[C@@H]1C[C@H](NS(C)(=O)=O)[C@@H]2CO[C@H]3CC[C@H](CC3)c3ccccc3OCC(=O)N12 | EC50 | 0.01 to 1 µM |
| Cc1ccc2c(c1)OCC(=O)N1CCC[C@H](NS(C)(=O)=O)[C@@H]1CO[C@H]1CC[C@@H]2CC1 (stereo in doubt) | EC50 | 0.01 to 1 µM |
| CS(=O)(=O)N[C@H]1CCCN2C(=O)COc3cc(C#N)ccc3[C@H]3CC[C@H](CC3)OC[C@@H]12 (stereo in doubt) | EC50 | 0.01 to 1 µM |
| C[C@H]1C[C@H](NS(C)(=O)=O)C2CO[C@H]3CC[C@H](CC3)c3ccccc3OCC(=O)N21 (stereo in doubt) | EC50 | 0.01 to 1 µM |

Let us move to another entry and its EC50.
INPUT: Any idea what EC50 was measured for Cc1ccnc2c1[C@H]1CC[C@H](CC1)OCC1[C@@H](NS(=O)(=O)C(F)(F)F)CCN1C(=O)CO2 (stereo in doubt) ?
OUTPUT: < 0.01 µM

###

EC50 reference
- tested.target: human orexin-2 receptor (OX2R) (Homo sapiens, UniProt O43614)
- Sequence (O43614 1-444): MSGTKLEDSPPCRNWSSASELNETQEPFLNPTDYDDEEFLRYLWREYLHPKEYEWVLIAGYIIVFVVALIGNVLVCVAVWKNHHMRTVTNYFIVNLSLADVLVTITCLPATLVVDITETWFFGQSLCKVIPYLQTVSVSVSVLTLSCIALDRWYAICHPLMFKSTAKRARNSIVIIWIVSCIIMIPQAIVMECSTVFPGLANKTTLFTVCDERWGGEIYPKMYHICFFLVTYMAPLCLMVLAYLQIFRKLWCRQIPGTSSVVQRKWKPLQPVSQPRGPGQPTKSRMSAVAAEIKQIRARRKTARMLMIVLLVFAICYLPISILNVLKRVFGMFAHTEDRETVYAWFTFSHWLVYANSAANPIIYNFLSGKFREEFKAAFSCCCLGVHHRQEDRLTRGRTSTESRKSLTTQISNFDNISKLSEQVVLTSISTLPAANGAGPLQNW
- assay.method.text: Human OX2R IP1 assay
- condition.info: T-Rex CHO cells stably overexpressing human OX2R; IP1 accumulation; 1 hr at 37 degrees C; mean EC50
- Description: T-Rex CHO cells stably overexpressing the human orexin-2 receptor (OX2R) were induced overnight with 1 μg/mL of doxycycline in a T225 flask. 24 hours post induction, cells were lifted with accutase and plated into a 384-well proxy plate at 30,000 cells/well. […] The plates were allowed to incubate for 1 hour at room temperature and were then read in the EnVision® multimode plate reader, measuring inositol phosphate levels. […]

For orientation, consider the following solved cases.
| compound | observed |
| --- | --- |
| C[C@@H]1CCN2C(=O)COc3ccccc3[C@H]3CC[C@H](CC3)OCC2[C@H]1NS(C)(=O)=O (mixture of isomers) [Compound 36] | < 0.01 µM |
| O=C1COc2ccccc2[C@H]2CC[C@H](CC2)OC[C@H]2[C@@H](NS(=O)(=O)CC3CC3)CCCN12 (stereo in doubt) [Compound 48] | < 0.01 µM |
| O=C1COc2ccccc2[C@H]2CC[C@H](CC2)OC[C@H]2[C@@H](NS(=O)(=O)C3COC3)CCN12 (stereo in doubt) [Compound 110] | < 0.01 µM |
| O=C1COc2nccnc2[C@H]2CC[C@H](CC2)OCC2[C@@H](NS(=O)(=O)C(F)(F)F)CCCN12 (stereo in doubt) [Compound 98] | < 0.01 µM |
| O=C1COc2ccc(Cl)cc2[C@H]2CC[C@H](CC2)OC[C@H]2[C@@H](NS(=O)(=O)C3CC3)CCCN12 (stereo in doubt) [Compound 16] | < 0.01 µM |
| O=C1COc2ncncc2[C@H]2CC[C@H](CC2)OC[C@H]2[C@@H](NS(=O)(=O)C3CC3)CCCN12 (stereo in doubt) [Compound 97] | 0.01 to 1 µM |

INPUT: EC50 lookup needed for O=C1COc2ncccc2[C@H]2CC[C@H](CC2)OCC2[C@@H](NS(=O)(=O)C(F)(F)F)CCN12 (stereo in doubt) [Compound 108] , thanks.
OUTPUT: < 0.01 µM

INPUT: Given the entry CC[C@H](C)S(=O)(=O)N[C@H]1CCCN2C(=O)COc3ccccc3C3CCC(CC3)OC[C@@H]12 (stereo in doubt) [Compound 21] , report its measured EC50.
OUTPUT: < 0.01 µM

INPUT: // EC50 lookup, key: O=C1COc2ccccc2[C@H]2CC[C@H](CC2)OC[C@H]2[C@@H](NS(=O)(=O)C(F)F)CCCN12 (stereo in doubt) [Compound 7]
OUTPUT: < 0.01 µM

INPUT: // query EC50 value for entry CC(C)S(=O)(=O)N[C@H]1CCCN2C(=O)COc3ccc(Cl)cc3[C@H]3CC[C@H](CC3)OC[C@@H]12 (stereo in doubt) [Compound 26]
OUTPUT: < 0.01 µM

INPUT: EC50 lookup needed for O=C1COc2ccccc2[C@H]2CC[C@H](CC2)OC[C@H]2[C@@H](NS(=O)(=O)C(F)(F)F)CCCN12 (stereo in doubt) [Compound 11] , thanks.
OUTPUT: < 0.01 µM

INPUT: # input compound: CC(C)(C)S(=O)(=O)N[C@H]1CCCN2C(=O)COc3ccccc3[C@H]3CC[C@H](CC3)OC[C@@H]12 (stereo in doubt) [Compound 44] ; wanted: its EC50
OUTPUT: 0.01 to 1 µM
